The reported numbers originate from patent US20090209460A1.

# assayComment: brush border membrane (BBM) stability assay
# Type: in vitro ADME, human
# conditionDetails: brush border membrane extract (e.g. kidney); percent compound remaining after a 5 hour incubation, human brush border membrane assay; read-out: hBBM
Residues, ends and D or L forms follow the SMILES beside them.
measurementLabel: remaining at 5 h
Could you write the number and then its unit?

Q: # input compound: CC(C)C[C@H](NC(=O)[C@H](Cc1ccccc1)NC(=O)[C@H](Cc1ccc(O)cc1)NC(=O)CNC(=O)[C@H](CO)NC(=O)[C@H](Cc1ccc(O)cc1)NC(=O)[C@H](Cc1c[nH]cn1)NC(=O)[C@H](Cc1ccccc1)NC(=O)[C@H](CC(C)C)NC(=O)[C@@H](N)Cc1ccccc1)C(=O)N[C@@H](Cc1ccccc1)C(=O)N[C@@H](CCCNC(=N)N)C(=O)N1CCC[C@H]1C(=O)N[C@@H](CCCNC(=N)N)C(=O)N[C@@H](CC(N)=O)C(N)=O [Des-(Lys7-Gly30)FN38 or FN15] (H-FLFHYSGYFLFRPRN-NH2; N-terminus and C-terminus assumed) ; wanted: its remaining at 5 h
Result: 49%
